- Test system: Escherichia coli
- measurement protocol: Antimicrobial susceptibility testing (MIC), BD Phoenix Automated Microbiology System; further: key: R, resistant; I, intermediate; S, susceptible; R*: *As a rule, when ESBL is detected, an interpretation of susceptible or intermediate for penicillins, cephalosporins and aztreonam is reported as resistant
- Format: cell-based
- stated conditions: Escherichia coli isolate 4
measurement label: interpretation of the result

Consider the following illustrative entries.
{"compound": "C[C@H]1COc2c(N3CCN(C)CC3)c(F)cc3c(=O)c(C(=O)O)cn1c23", "subject of test": "Escherichia coli", "result": "R"}
{"compound": "CO/N=C(\\C(=O)N[C@@H]1C(=O)N2C(C(=O)O)=C(COC(N)=O)CS[C@H]12)c1ccco1", "subject of test": "Escherichia coli", "result": "R"}
{"compound": "NC[C@H]1O[C@H](O[C@H]2[C@H](O)[C@@H](O[C@H]3O[C@H](CO)[C@@H](O)[C@H](N)[C@H]3O)[C@H](N)C[C@@H]2N)[C@H](N)C[C@@H]1O", "subject of test": "Escherichia coli", "result": "S"}
{"compound": "NCC[C@H](O)C(=O)N[C@@H]1C[C@H](N)[C@@H](O[C@H]2O[C@H](CN)[C@@H](O)[C@H](O)[C@H]2O)[C@H](O)[C@H]1O[C@H]1O[C@H](CO)[C@@H](O)[C@H](N)[C@H]1O", "subject of test": "Escherichia coli", "result": "S"}
{"compound": "CO/N=C(\\C(=O)N[C@@H]1C(=O)N2C(C(=O)[O-])=C(C[N+]3(C)CCCC3)CS[C@H]12)c1csc(N)n1 [Cefe., Cefepime]", "subject of test": "Escherichia coli", "result": "R"}

# evaluate next
Give reported interpretation of the result value for `C[C@H]1[C@H](NC(=O)/C(=N\OC(C)(C)C(=O)O)c2csc(N)n2)C(=O)N1S(=O)(=O)O` R

* * *

- Tested on: Escherichia coli
- measurement protocol: Antimicrobial susceptibility testing (MIC), BD Phoenix Automated Microbiology System; further: key: R, resistant; I, intermediate; S, susceptible; R*: *As a rule, when ESBL is detected, an interpretation of susceptible or intermediate for penicillins, cephalosporins and aztreonam is reported as resistant
- Type: cell-based
- stated conditions: Escherichia coli isolate 4
measurement label: interpretation of the result

Below: 9 compounds and their reported interpretation of the result.
{"compound": "CO[C@@]1(NC(=O)Cc2cccs2)C(=O)N2C(C(=O)O)=C(COC(N)=O)CS[C@@H]21 [Cx., Cefoxitin]", "interpretation of the result": "R"}
{"compound": "CC(C)(O/N=C(\\C(=O)N[C@@H]1C(=O)N2C(C(=O)[O-])=C(C[n+]3ccccc3)CS[C@H]12)c1csc(N)n1)C(=O)O [Ceft., Ceftazidime]", "interpretation of the result": "R"}
{"compound": "CN(C)[C@@H]1C(O)=C(C(N)=O)C(=O)[C@@]2(O)C(O)=C3C(=O)c4c(O)cccc4[C@@](C)(O)[C@H]3C[C@@H]12 [Tet., Tetracycline]", "interpretation of the result": "R"}
{"compound": "O=C1CN(/N=C/c2ccc([N+](=O)[O-])o2)C(=O)N1 [Nf., Nitrofurantoin]", "interpretation of the result": "S"}
{"compound": "CC1(C)S[C@@H]2[C@H](NC(=O)[C@H](N)c3ccccc3)C(=O)N2[C@H]1C(=O)O [Amp., Ampicillin]", "interpretation of the result": "R"}
{"compound": "O=C(O)c1cn(C2CC2)c2cc(N3CCNCC3)c(F)cc2c1=O [Cipro., Ciprofloxacin]", "interpretation of the result": "R"}
{"compound": "CO/N=C(\\C(=O)N[C@@H]1C(=O)N2C(C(=O)O)=C(CSc3nc(=O)c(=O)[nH]n3C)CS[C@H]12)c1csc(N)n1 [Co., Ceftriaxone]", "interpretation of the result": "R"}
{"compound": "Cc1nnc(SCC2=C(C(=O)O)N3C(=O)[C@@H](NC(=O)Cn4cnnn4)[C@H]3SC2)s1 [Cefa., Cefazolin]", "interpretation of the result": "R"}
{"compound": "C[C@@H](O)[C@H]1C(=O)N2C(C(=O)O)=C(S[C@@H]3CN[C@H](C(=O)N(C)C)C3)[C@H](C)[C@H]12 [Mero., Meropenem]", "interpretation of the result": "S"}

Now let's try a different one.
Entry C[C@@H](O)[C@H]1C(=O)N2C(C(=O)O)=C(SCCN=CN)C[C@H]12 [Im., Imipenem] needs its interpretation of the result filled in; supply it. S

* * *

- Tested on: Klebsiella ssp.
- measurement protocol: Antimicrobial susceptibility testing (MIC), BD Phoenix Automated Microbiology System
- Assay type: cell-based
- stated conditions: Klebsiella, read-out: minimal inhibiting concentration, Klebsiella ssp. isolate 5
- From the text: The inventors performed antimicrobial susceptibility testing (AST) by determining the minimal inhibiting concentration (MIC) of a panel of antimicrobials on all twenty bacterial isolates using the BD Phoenix Automated Microbiology System (Table 3). Antimicrobial panels included several drugs from each of the four most commonly used classes of antimicrobials, aminoglycosides, β-lactams, carbapenems and fluoroquinolones. […]
measurement label: MIC

Example compounds with recorded MIC:
{"compound": "CO/N=C(\\C(=O)N[C@@H]1C(=O)N2C(C(=O)O)=C(COC(C)=O)CS[C@H]12)c1csc(N)n1 [Cefo., Cefotaxime]", "MIC": "> 32 µg/mL"}
{"compound": "C[C@@H](O)[C@H]1C(=O)N2C(C(=O)O)=C(S[C@@H]3CN[C@H](C(=O)N(C)C)C3)[C@H](C)[C@H]12 [Mero., Meropenem]", "MIC": "≤ 1 µg/mL"}
{"compound": "CO/N=C(\\C(=O)N[C@@H]1C(=O)N2C(C(=O)[O-])=C(C[N+]3(C)CCCC3)CS[C@H]12)c1csc(N)n1 [Cefe., Cefepime]", "MIC": "2 µg/mL"}
{"compound": "C[C@@H](O)[C@H]1C(=O)N2C(C(=O)O)=C(SCCN=CN)C[C@H]12 [Im., Imipenem]", "MIC": "≤ 1 µg/mL"}
{"compound": "C[C@H]1COc2c(N3CCN(C)CC3)c(F)cc3c(=O)c(C(=O)O)cn1c23 [Lev., Levofloxacin]", "MIC": "≤ 1 µg/mL"}

Supply measured MIC of O=C1CN(/N=C/c2ccc([N+](=O)[O-])o2)C(=O)N1 [Nf., Nitrofurantoin] in your reply. > 64 µg/mL

State, in one line, measured MIC of NC[C@H]1O[C@H](O[C@H]2[C@H](O)[C@@H](O[C@H]3O[C@H](CO)[C@@H](O)[C@H](N)[C@H]3O)[C@H](N)C[C@@H]2N)[C@H](N)C[C@@H]1O [Tob., Tobramycin] > 8 µg/mL

* * *

- System: Acinetobacter baumannii
- measurement protocol: Antimicrobial susceptibility testing (MIC), BD Phoenix Automated Microbiology System; further: key: R, resistant; I, intermediate; S, susceptible; R*: *As a rule, when ESBL is detected, an interpretation of susceptible or intermediate for penicillins, cephalosporins and aztreonam is reported as resistant
- Type: cell-based
- stated conditions: Acinetobacter baumannii isolate 1
- Text: The inventors performed antimicrobial susceptibility testing (AST) by determining the minimal inhibiting concentration (MIC) of a panel of antimicrobials on all twenty bacterial isolates using the BD Phoenix Automated Microbiology System (Table 3). Antimicrobial panels included several drugs from each of the four most commonly used classes of antimicrobials, aminoglycosides, β-lactams, carbapenems and fluoroquinolones. […]
measurement label: interpretation of the result

{"compound": "C[C@@H](O)[C@H]1C(=O)N2C(C(=O)O)=C(S[C@@H]3CN[C@H](C(=O)N(C)C)C3)[C@H](C)[C@H]12", "measurement label": "interpretation of the result", "result": "S"}
{"compound": "CCN1CCN(C(=O)N[C@@H](C(=O)N[C@@H]2C(=O)N3[C@@H]2SC(C)(C)[C@@H]3C(=O)O)c2ccccc2)C(=O)C1=O", "measurement label": "interpretation of the result", "result": "R"}
{"compound": "CC1(C)S[C@@H]2[C@H](NC(=O)[C@H](N)c3ccccc3)C(=O)N2[C@H]1C(=O)O", "measurement label": "interpretation of the result", "result": "R"}
{"compound": "NCC[C@H](O)C(=O)N[C@@H]1C[C@H](N)[C@@H](O[C@H]2O[C@H](CN)[C@@H](O)[C@H](O)[C@H]2O)[C@H](O)[C@H]1O[C@H]1O[C@H](CO)[C@@H](O)[C@H](N)[C@H]1O", "measurement label": "interpretation of the result", "result": "R"}
{"compound": "O=C1CN(/N=C/c2ccc([N+](=O)[O-])o2)C(=O)N1", "measurement label": "interpretation of the result", "result": "R"}
{"compound": "COc1c(N2CCNC(C)C2)c(F)cc2c(=O)c(C(=O)O)cn(C3CC3)c12 (stereo not drawn)", "measurement label": "interpretation of the result", "result": "R"}
{"compound": "C[C@H]1COc2c(N3CCN(C)CC3)c(F)cc3c(=O)c(C(=O)O)cn1c23", "measurement label": "interpretation of the result", "result": "R"}
{"compound": "CO/N=C(\\C(=O)N[C@@H]1C(=O)N2C(C(=O)O)=C(COC(C)=O)CS[C@H]12)c1csc(N)n1", "measurement label": "interpretation of the result", "result": "R"}
{"compound": "CC(C)(O/N=C(\\C(=O)N[C@@H]1C(=O)N2C(C(=O)[O-])=C(C[n+]3ccccc3)CS[C@H]12)c1csc(N)n1)C(=O)O", "measurement label": "interpretation of the result", "result": "R"}
{"compound": "C[C@H]1[C@H](NC(=O)/C(=N\\OC(C)(C)C(=O)O)c2csc(N)n2)C(=O)N1S(=O)(=O)O", "measurement label": "interpretation of the result", "result": "R"}

Specify measured interpretation of the result for `CN(C)[C@@H]1C(O)=C(C(N)=O)C(=O)[C@@]2(O)C(O)=C3C(=O)c4c(O)cccc4[C@@](C)(O)[C@H]3C[C@@H]12` . R

Give me measured interpretation of the result, please, for this compound: `C[C@@H](O)[C@H]1C(=O)N2C(C(=O)O)=C(SCCN=CN)C[C@H]12` S

# return recorded interpretation of the result for input `CO/N=C(\C(=O)N[C@@H]1C(=O)N2C(C(=O)O)=C(COC(N)=O)CS[C@H]12)c1ccco1` R

Give the reported value of interpretation of the result for this record: `CC(=O)OCC1=C(C(=O)O)N2C(=O)[C@@H](NC(=O)Cc3cccs3)[C@H]2SC1` R

For the compound `NC[C@H]1O[C@H](O[C@H]2[C@H](O)[C@@H](O[C@H]3O[C@H](CO)[C@@H](O)[C@H](N)[C@H]3O)[C@H](N)C[C@@H]2N)[C@H](N)C[C@@H]1O` , give its reported interpretation of the result. I
